B1: Hairpin Ribozyme (parent)
chain: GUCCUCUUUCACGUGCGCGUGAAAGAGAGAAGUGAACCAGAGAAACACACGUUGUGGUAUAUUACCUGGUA

Variants of: B1
Experiment: self-cleavage, relative activity (ratio to wild type); higher = more cleavage; co-transcriptional
Let's look at some variants and their measured self-cleavage.
# answer = number (no unit)

// below: answered variants
| sequence chain | self-cleavage |
| --- | --- |
| GUCCUCUUUCACGUGCGCGUGAAAGAGAGAAGUGAACCAGAGAAACACACGUUGUGGUACAGUACCUGGUA [U60C U62G] | 0.155 |
| GUCCUCUUUCACGUGCGCGUGACAGAGAGAAGUGAACAAGAGAAACACACGUUGUGGUAUAUUACCUGGUA [A23C C38A] | 0.161 |
| GUCCUCUUUCACGUGCGCGGGAAAGAGAGAAGUGAUCCAGAGAAACACACGUUGUGGUAUAUUACCUGGUA [U20G A36U] | 0.749 |
| GUCCUCUUACACGUGCGCGUGAAAGAGAGAAGUGAACCAGAGAAACACACGUUGUGGUAUAUUGCCUGGUA [U9A A64G] | 0.284 |

Fill in reported self-cleavage for this entry: GUCCUCUUUCACGUGCACGUGAAAGAGAGAAGUGAACCAGAGAAACACACGUUGUGGUAUAUAACCUGGUA [G17A U63A]
0.19

Data origin, for the record: the RNAGym collection of RNA variant scans (doi:10.7554/elife.80360)
